assay: in vitro; details: human, hela cells, % viability
Property: viability at 28.5 h, 10 µM (%)
Numbers only, in %.

Some molecules with recorded viability at 28.5 h, 10 µM:
| Molecule | Units Text | viability at 28.5 h, 10 µM |
| --- | --- | --- |
| Cc1cnc(CNC(=O)C2(c3ccccc3)CCCC2)cn1 | % | 101 |
| COc1ccc(C2(NC(=O)c3cnn(C)c3C)CCCCC2)cc1 | % | 84.8 |
| CCN1CCN(S(=O)(=O)c2cccc3c(S(=O)(=O)N4CCN(CC)CC4)cccc23)CC1 | % | 90.4 |
| O=C(Nc1ccccc1N1CCN(C(=O)c2ccc(Cl)cc2)CC1)c1ccc(-c2cccc([N+](=O)[O-])c2)o1 | % | 93.3 |

Working through the 5 molecules below one at a time, give viability at 28.5 h, 10 µM for each.
1. CCOc1ccc2nc(NS(=O)(=O)c3cccc(C(=O)O)c3)sc2c1
2. COc1nc(N)nc2c1ccn2C1CC(O)C(CO)O1 (stereo not drawn)
3. CC1CCN(C(=S)NC2CC3CCC2C3)CC1 (stereo not drawn)
4. CSc1nsc(SCC(=O)N(c2ccccc2)c2ccccc2)n1
5. CC(=O)c1c(C)c2c(=O)n3c(nc2[nH]c1=O)CCC3

## Result
102
98.6
91.3
95.3
93.6

----------
assay: in vitro; details: human, hela cells, % viability
Hi there, I'd appreciate the recorded viability at 28.5 h, 10 µM for every entry that follows.
Give bare numbers, in %.

Some compounds with recorded viability at 28.5 h, 10 µM:
| Compound | Recorded Result |
| --- | --- |
| Clc1ccc(-c2nn3c4cc(N5CCNCC5)ccc4nc3c3ccccc23)cc1 | 102 |
| CC1CCC(C(N)=O)CN1C(=O)c1csc(COc2ccc(Cl)cc2)n1 (stereo not shown) | 102 |
| C=CCc1cc(C)cc(C)c1OCCN1CCN(CC)CC1 [CBK267392G] | 93.7 |
| Nc1[nH]ncc1-c1nnc(Nc2ccc3c(c2)OCO3)o1 | 85.1 |

Working through the 3 compounds below one at a time, give viability at 28.5 h, 10 µM for each.
1. CCn1cc(C(=O)N2C[C@H](C(=O)OC)[C@@H](c3ccccc3F)C2)cn1
2. COc1ccc2ccccc2c1CNc1ccc(N2CCOCC2)c(C(=O)O)c1
3. Cc1ccc([N+](=O)[O-])cc1NS(=O)(=O)Cc1ccc(Cl)cc1

## Result
[94.2, 94.1, 71.8]

Working through the 3 compounds below one at a time, give viability at 28.5 h, 10 µM for each.
1. CC(=O)C1=C(C)NC(SCC(=O)c2ccc(C)cc2)=C(C#N)C1c1ccco1 (stereo not shown)
2. Cn1cc(C(=O)N2CCCC(c3cc4ccccc4cn3)C2)cn1 (stereo not shown)
3. CCCC(SCC)C(N)=O (stereo not shown)

## Result
109
106
99.1

Working through the 8 compounds below one at a time, give viability at 28.5 h, 10 µM for each.
1. Cc1ccc2c(c1)-c1c(ssc1=S)C(C)(C)N2C(=O)COc1nc2ccccc2s1
2. N=c1n(CCN2CCCCC2)c2ccccc2n1CC(O)COc1ccc(Cl)cc1Cl (stereo not shown) [CBK266336C]
3. COC(=O)c1ccc(N2CCN(C)CC2)c(NC(=O)c2cc(Br)ccc2OC)c1
4. O=C1NC2(CCSCC2)Oc2ccccc21
5. CC1CCC2(CC1)NC(=O)N(Cc1coc(-c3ccccc3)n1)C2=O (stereo not shown)
6. Nc1cc2ccccc2c(-c2ccc(OC(F)(F)F)cc2)n1
7. CCN(CC)CCn1c(=N)n(CC(O)c2ccc(C)cc2)c2ccccc21 (stereo not shown) [CBK262914C]
8. Nc1c(Cc2c(Cl)cccc2Cl)c(=O)n2n1CCC2

## Result
1. 88
2. 31
3. 92
4. 79.3
5. 98.3
6. 99.4
7. 104
8. 98.9

## Task Bench note: what viability at 28.5 h, 10 µM did Cc1nc2c(s1)C[C@@H]1[C@](C)(CO)[C@H](O)CC[C@@]1(C)[C@@H]2CC(=O)O show?
## Result 93.3

// provenance: paper PMC12040169
